- assayProtocol: Intrinsic clearance (CLint) assay, mouse liver microsomes
- Type: in vitro ADME
- conditionSummary: predicted metabolic clearance
Non-standard residues stand in square brackets, D forms with d. Residues, ends and D or L forms follow the SMILES beside them. dPhe(4-Cl) = N[C@H](Cc1ccc(Cl)cc1)C(=O)O; dOrn = NCCC[C@@H](N)C(=O)O
Consider the following molecules; for each one, report its CLpred Mouse.

May I ask what CLpred Mouse has been recorded for CC(C)C[C@H]1NC(=O)[C@H](C)NC(=O)[C@H](Cc2c[nH]c3ccccc23)NC(=O)[C@@H](CCCN)NC(=O)[C@H](CC(N)=O)NC(=O)[C@H](C(C)C)NC1=O [Compound 2c] (cyclo(A[dL]VN[dOrn]W)) ?
<20.50 mL/min/kg

Any idea what CLpred Mouse was measured for CC(C)C[C@@H]1NC(=O)[C@@H](Cc2ccc(Cl)cc2)NC(=O)[C@@H](CCCN)NC(=O)[C@H](CC(N)=O)NC(=O)[C@H](C(C)C)NC(=O)[C@@H](CC(C)C)NC1=O [Compound 14c] (cyclo(L[dL]VN[dOrn][dPhe(4-Cl)])) ?
<20.50 mL/min/kg
